Origin of values: patent US8501946B2

# system: human recombinant P2X7 receptors (Homo sapiens)
# Construct: expressed in transfected cells
# Sequence (Q99572 1-595): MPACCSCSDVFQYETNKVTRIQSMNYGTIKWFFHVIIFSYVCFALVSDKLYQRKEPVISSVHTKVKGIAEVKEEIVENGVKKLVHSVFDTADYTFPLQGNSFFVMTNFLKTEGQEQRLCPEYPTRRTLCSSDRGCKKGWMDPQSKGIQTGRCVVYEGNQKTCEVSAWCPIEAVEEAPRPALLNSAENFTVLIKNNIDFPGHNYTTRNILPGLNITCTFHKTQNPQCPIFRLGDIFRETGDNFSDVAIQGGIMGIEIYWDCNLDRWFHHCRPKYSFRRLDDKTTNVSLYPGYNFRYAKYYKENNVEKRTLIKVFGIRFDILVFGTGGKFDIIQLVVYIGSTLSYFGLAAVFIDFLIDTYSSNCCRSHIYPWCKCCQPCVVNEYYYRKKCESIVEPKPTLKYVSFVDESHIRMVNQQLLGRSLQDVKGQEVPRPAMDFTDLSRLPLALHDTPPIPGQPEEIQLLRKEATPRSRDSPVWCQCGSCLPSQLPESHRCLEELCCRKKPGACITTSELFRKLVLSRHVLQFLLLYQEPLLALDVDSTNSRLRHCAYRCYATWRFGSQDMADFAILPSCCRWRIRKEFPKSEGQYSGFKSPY
# protocol: Ethidium Accumulation Assay 1 (HEK293 cells, ATP-induced ethidium uptake)
# Assay type: cell-based
# measurement context: HEK293 cells expressing human P2X7; 1 mM ATP; sometimes mean of more than one measurement; read-out: Assay 1 (antagonist pIC50 for blocking ATP responses) (converted)
value kind: IC50

structure string: O=C(c1ccc(Cl)c(C(F)(F)F)c1)N1CCn2c(nnc2-c2cnccn2)C1
system: human recombinant P2X7 receptors (Homo sapiens)
experimental value: < 100 nM
//
structure string: O=C(c1cccc(Cl)c1Cl)N1CCn2c(nnc2-c2ccc(F)cn2)C1
system: human recombinant P2X7 receptors (Homo sapiens)
experimental value: < 10 nM
//
structure string: O=C(c1cccc(C(F)(F)F)c1Cl)N1CCn2c(nnc2C2CCCCC2)C1
system: human recombinant P2X7 receptors (Homo sapiens)
experimental value: < 100 nM
//
structure string: Cc1cc(F)ccc1C(=O)N1CCn2c(nnc2-c2cnccn2)C1
system: human recombinant P2X7 receptors (Homo sapiens)
experimental value: < 100 nM
//
structure string: O=C(c1cccc(C(F)(F)F)c1Cl)N1CCn2c(nnc2-c2ccco2)C1
system: human recombinant P2X7 receptors (Homo sapiens)
experimental value: < 10 nM

From here, focus on the item given below.
Fill in: IC50 of O=C(c1cccc(Cl)c1Cl)N1CCn2c(nnc2-c2ccc(F)cc2)C1 is ___ < 10 nM

----------
# system: human recombinant P2X7 receptors (Homo sapiens, UniProt Q99572)
# Construct: expressed in transfected cells
# protocol: Ethidium Accumulation Assay 1 (HEK293 cells, ATP-induced ethidium uptake)
# Format: cell-based
# measurement context: HEK293 cells expressing human P2X7; 1 mM ATP; sometimes mean of more than one measurement; read-out: Assay 1 (antagonist pIC50 for blocking ATP responses) (converted)
value kind: IC50

Solved entries (count: 8):
compound: O=C(c1ccc(Cl)cc1Cl)N1CCn2c(nnc2-c2cnccn2)C1 [Example 92]
experimental value: < 10 nM
--
compound: O=C(c1ccccc1Cl)N1CCn2c(nnc2-c2ccco2)C1 [Example 117]
experimental value: < 10 nM
--
compound: O=C(c1cccc(C(F)(F)F)c1Cl)N1CCn2c(nnc2-c2ccc(F)cn2)C1 [Example 45]
experimental value: < 10 nM
--
compound: O=C(c1ccc(F)cc1Cl)N1CCn2c(nnc2-c2cccc(F)n2)C1 [Example 41]
experimental value: < 501 nM
--
compound: O=C(c1ccc(F)cc1Cl)N1CCn2c(Br)nnc2C1 [Example 109]
experimental value: < 501 nM
--
compound: O=C(c1cccc(C(F)(F)F)c1Cl)N1CCn2c(nnc2-c2ccc(F)cc2F)C1 [Example 24]
experimental value: < 100 nM
--
compound: O=C(c1ccc(Cl)cc1Cl)N1CCn2c(nnc2-c2ccc(F)cc2F)C1 [Example 101]
experimental value: < 100 nM
--
compound: O=C(c1cccc(C(F)(F)F)c1Cl)N1CCn2c(nnc2-c2cccc(F)n2)C1 [Example 53]
experimental value: < 10 nM

Fill in: IC50 of O=C(c1cccc(C(F)(F)F)c1Cl)N1CCn2c(nnc2C2CCCC2)C1 [Example 139] is ___ < 100 nM

Now give it for O=C(c1ccc(Cl)cc1Cl)N1CCn2c(nnc2-c2ccc(F)cc2)C1 [Example 100] too. < 100 nM
